- Tested system: Trypanothione reductase (Leishmania infantum)
- Sequence (A4HSF7 whole entry): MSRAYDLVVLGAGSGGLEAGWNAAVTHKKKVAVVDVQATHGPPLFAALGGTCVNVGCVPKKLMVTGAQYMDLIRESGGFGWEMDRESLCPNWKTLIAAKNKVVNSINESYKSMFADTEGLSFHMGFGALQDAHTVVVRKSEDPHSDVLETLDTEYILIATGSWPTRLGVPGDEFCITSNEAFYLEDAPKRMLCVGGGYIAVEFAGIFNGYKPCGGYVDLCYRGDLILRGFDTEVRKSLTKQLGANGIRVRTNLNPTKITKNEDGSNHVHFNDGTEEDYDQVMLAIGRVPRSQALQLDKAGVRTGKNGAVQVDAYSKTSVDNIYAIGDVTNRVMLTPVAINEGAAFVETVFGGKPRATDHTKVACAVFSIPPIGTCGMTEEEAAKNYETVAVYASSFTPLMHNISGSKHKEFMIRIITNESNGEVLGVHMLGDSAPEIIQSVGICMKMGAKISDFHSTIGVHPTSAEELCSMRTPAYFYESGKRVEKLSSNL
- Method notes: Inhibition of recombinant Leishmania infantum TryR preincubated for 10 mins followed by T[S]2 substrate addition and measured after 1 hr in presence of NADPH
pIC50: −log10 of the molar value.
Quantity: pIC50

1. Ac-PKIEQSVKI-NH2	4.32

----------
- System: Leishmania infantum
- Method notes: Antileishmanial activity against Leishmania infantum MCAN/ES/89/IPZ229/1/89 promastigotes assessed as induction of cell death at 25 uM after 24 hrs by propidium iodide staining based flow cytometry
- Format: functional
Active and inactive are the calls of the source. No cut-off for these calls is given here. Bridge positions count the residues as written; N and C are the ends. Peptide text beside a SMILES is read from it.
Quantity: Activity

1. CCCCC(NC(=O)[C@H](CCCCN)NC(=O)C(CCCC)NC(=O)[C@H](CO)NC(=O)[C@@H](NC(=O)CNC(=O)[C@@H](NC(=O)[C@H](CO)NC(=O)[C@H](CCC(N)=O)NC(=O)[C@@H](NC(=O)[C@@H](NC(=O)[C@H](CCCCN)NC(=O)[C@@H]1CCCN1C(C)=O)[C@@H](C)CC)[C@@H](C)CC)C(C)C)[C@@H](C)CC)C(N)=O (stereo partly drawn)	inactive
2. CCCCC(NC(=O)[C@H](CCCCN)NC(=O)C(CCCC)NC(=O)[C@H](CO)NC(=O)[C@@H](NC(=O)[C@H](CCC(=O)O)NC(=O)[C@@H](NC(=O)[C@H](CO)NC(=O)[C@H](CCC(N)=O)NC(=O)[C@@H](NC(=O)[C@@H](NC(=O)[C@H](CCCCN)NC(=O)[C@@H]1CCCN1C(C)=O)[C@@H](C)CC)[C@@H](C)CC)C(C)C)[C@@H](C)CC)C(N)=O (stereo partly drawn)	inactive
3. CC[C@H](C)[C@H](NC(=O)CNC(=O)[C@@H]1CCCCNC(=O)CC[C@H](NC(=O)[C@H](CCCCN)NC(=O)[C@@H]2CCCN2C(C)=O)C(=O)N[C@@H]([C@@H](C)CC)C(=O)N[C@@H](CCC(N)=O)C(=O)N[C@@H](CO)C(=O)N1)C(N)=O (Ac-PKEIQSKGI-NH2; lactam 3-7)	inactive
